Molecular target: MAO-B (Rattus norvegicus, UniProt P19643)
Construct: suspension of 1 part by volume of the forebrains of male Wistar rats; from tissue; host or cells: forebrain of male Wistar rats, suspension in potassium phosphate buffer
Assay: MAO-B inhibition activity with rat forebrain (14C-PEA substrate)
Format: biochemical, rat (male Wistar)
Conditions: 10^-6 M, read-out: Inhibiting activity MAO-B (% at 10^-6 M)
Protocol: Determination of MAO inhibition activity with the use of rat forebrain: The MAO inhibition activity was determined by a method of Prada et al. (J. Pharmacol. Exp. Ther., 248, 400-414 (1989)). […] Diethyl ether and n-heptane were used as the radioactive metabolites formed by MAO-A and MAO-B, respectively. […] The upper organic layer was recovered by decantation and the radioactivity thereof was determined with a liquid scintillation counter. […]
Hi there, I'd appreciate the recorded inhibition at 1 µM for every entry that follows.

Q. Looking for the measured inhibition at 1 µM of COC[C@H]1CN(c2ccc3nc(C4CCC(O)O4)sc3c2)C(=O)O1 (some centres unmarked) , can you help?
A. 10%

Q. Looking for the measured inhibition at 1 µM of COCC1CN(c2ccc3nc(C(N)CCC#N)sc3c2)C(=O)O1 (centres unmarked) , can you help?
A. 3%

Q. Looking for the measured inhibition at 1 µM of COCC1CN(c2ccc3sc(C(O)CCC#N)nc3c2)C(=O)O1 (centres unmarked) , can you help?
A. 3%

Q. Looking for the measured inhibition at 1 µM of COCC1CN(c2ccc3nc(NCCC#N)sc3c2)C(=O)O1 (centres unmarked) , can you help?
A. 7%

Q. Looking for the measured inhibition at 1 µM of `COC[C@@H]1CN(c2ccc3nc(CCCCC#N)sc3c2)C(=O)O1` , can you help?
A. 7%

###

Hi there, I'd appreciate the recorded inhibition at 1 µM for every entry that follows.
Molecular target: MAO-B (Rattus norvegicus, UniProt P19643)
Construct: suspension of 1 part by volume of the forebrains of male Wistar rats; from tissue; host or cells: forebrain of male Wistar rats, suspension in potassium phosphate buffer
Sequence (P19643 1-520): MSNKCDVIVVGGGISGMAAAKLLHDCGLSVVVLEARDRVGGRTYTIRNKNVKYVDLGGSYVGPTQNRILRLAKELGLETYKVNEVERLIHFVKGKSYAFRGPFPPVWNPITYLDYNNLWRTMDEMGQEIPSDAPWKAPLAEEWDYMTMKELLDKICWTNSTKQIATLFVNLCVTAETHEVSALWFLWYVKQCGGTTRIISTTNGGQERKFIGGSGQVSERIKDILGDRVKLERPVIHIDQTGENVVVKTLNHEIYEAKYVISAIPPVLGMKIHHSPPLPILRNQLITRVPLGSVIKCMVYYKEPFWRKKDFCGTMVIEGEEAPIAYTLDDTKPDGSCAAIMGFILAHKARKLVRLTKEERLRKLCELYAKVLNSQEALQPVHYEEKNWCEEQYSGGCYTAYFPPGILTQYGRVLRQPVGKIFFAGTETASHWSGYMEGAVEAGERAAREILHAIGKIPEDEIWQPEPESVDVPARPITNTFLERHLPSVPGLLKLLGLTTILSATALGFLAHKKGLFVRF
Assay: MAO-B inhibition activity with rat forebrain (14C-PEA substrate)
Assay type: biochemical, rat (male Wistar)
Conditions: 10^-6 M, read-out: Inhibiting activity MAO-B (% at 10^-6 M)
Reply with just the number (in %).

Q. Looking for the measured inhibition at 1 µM of COCC1CN(c2ccc3nc(C(CCC#N)=NO)sc3c2)C(=O)O1 (centres unmarked) [Example 38] , can you help?
A. 11

Q. Looking for the measured inhibition at 1 µM of COCC1CN(c2ccc3nc(C(CCC#N)=NOC)sc3c2)C(=O)O1 (centres unmarked) [Example 39] , can you help?
A. 2

Q. Looking for the measured inhibition at 1 µM of COCC1CN(c2ccc3nc(CO)sc3c2)C(=O)O1 (centres unmarked) [Example 2] , can you help?
A. 11

Q. Looking for the measured inhibition at 1 µM of COC[C@H]1CN(c2ccc3nc([C@@H](O)CCC#N)sc3c2)C(=O)O1 [Example 9] , can you help?
A. 13

Q. Looking for the measured inhibition at 1 µM of COCC1CN(c2ccc3nc(C(C)(O)CCC#N)sc3c2)C(=O)O1 (centres unmarked) [Example 36] , can you help?
A. 1

Q. Looking for the measured inhibition at 1 µM of COCC1CN(c2ccc3nc(C(=O)CCC#N)sc3c2)C(=O)O1 (centres unmarked) [Example 31] , can you help?
A. 12

Q. Looking for the measured inhibition at 1 µM of COCC1CN(c2ccc3nc(C4CCC(=O)O4)sc3c2)C(=O)O1 (centres unmarked) [Example 5] , can you help?
A. 11

Q. Looking for the measured inhibition at 1 µM of COCC1CN(c2ccc3nc(N(CCC#N)CCC#N)sc3c2)C(=O)O1 (centres unmarked) [Example 43] , can you help?
A. 14

Q. Looking for the measured inhibition at 1 µM of COCC1CN(c2ccc3sc(NC(=O)CC#N)nc3c2)C(=O)O1 (centres unmarked) [Example 45] , can you help?
A. 10

Q. Looking for the measured inhibition at 1 µM of N#CCCCc1nc2ccc(N3C[C@@H](CO)OC3=O)cc2s1 [Example 19] , can you help?
A. 16

Q. Looking for the measured inhibition at 1 µM of N#CCCNc1nc2ccc(N3CC(CO)OC3=O)cc2s1 (centres unmarked) [Example 33] , can you help?
A. 10

Q. Looking for the measured inhibition at 1 µM of COCC1CN(c2ccc3nc(/C=C/CCC#N)sc3c2)C(=O)O1 (centres unmarked) [Example 21] , can you help?
A. 8

Q. Looking for the measured inhibition at 1 µM of COCC1CN(c2ccc3nc(CCCCC#N)sc3c2)C(=O)O1 (centres unmarked) [Example 20] , can you help?
A. 14

Q. Looking for the measured inhibition at 1 µM of COCC1CN(c2ccc3sc(CCCC#N)nc3c2)C(=O)O1 (centres unmarked) [Example 47] , can you help?
A. 9

Q. Looking for the measured inhibition at 1 µM of COC[C@H]1CN(c2ccc3nc(C(C)(C)CCC#N)sc3c2)C(=O)O1 [Example 25] , can you help?
A. 7

Q. Looking for the measured inhibition at 1 µM of COC[C@@H]1CN(c2ccc3nc(CCCC#N)sc3c2)C(=O)O1 [Example 17] , can you help?
A. 9

Q. Looking for the measured inhibition at 1 µM of COCC1CN(c2ccc3nc(C(O)CC=NO)sc3c2)C(=O)O1 (centres unmarked) [Example 8] , can you help?
A. 13

###

Hi there, I'd appreciate the recorded IC50 for every entry that follows.
Target: MAO-B (Rattus norvegicus, UniProt P19643)
Sequence (P19643 1-520): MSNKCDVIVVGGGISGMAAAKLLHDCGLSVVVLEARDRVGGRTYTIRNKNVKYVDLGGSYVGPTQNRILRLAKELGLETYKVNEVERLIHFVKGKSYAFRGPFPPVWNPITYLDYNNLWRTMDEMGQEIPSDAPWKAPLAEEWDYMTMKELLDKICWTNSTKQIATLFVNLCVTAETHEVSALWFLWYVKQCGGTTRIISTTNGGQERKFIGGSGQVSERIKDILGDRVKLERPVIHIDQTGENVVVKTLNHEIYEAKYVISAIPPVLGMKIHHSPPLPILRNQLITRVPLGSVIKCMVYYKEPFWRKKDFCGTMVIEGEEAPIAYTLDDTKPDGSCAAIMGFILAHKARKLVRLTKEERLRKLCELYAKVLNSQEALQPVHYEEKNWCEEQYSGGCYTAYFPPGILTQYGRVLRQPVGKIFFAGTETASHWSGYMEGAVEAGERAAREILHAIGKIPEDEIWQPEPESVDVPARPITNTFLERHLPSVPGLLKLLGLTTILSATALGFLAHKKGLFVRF
Structures can show the parent of a compound that is named as a salt.
Reply with just the number (in µM).

Q. Looking for the measured IC50 of COC[C@H]1CN(c2ccc3nc(N4CCC(C#N)CC4)sc3c2)C(=O)O1 [Example 13, hydrochloride] , can you help?
A. 598

Q. Looking for the measured IC50 of COCC1CN(c2ccc3nc(CCCC#N)sc3c2)C(=O)O1 (stereo not shown) [Example 14] , can you help?
A. 579

Q. Looking for the measured IC50 of N#CCCCc1nc2ccc(N3C[C@H](CO)OC3=O)cc2s1 [Example 18] , can you help?
A. 930

###

Biological target: MAO-A (Rattus norvegicus, UniProt P21396)
Sequence (P21396 1-526): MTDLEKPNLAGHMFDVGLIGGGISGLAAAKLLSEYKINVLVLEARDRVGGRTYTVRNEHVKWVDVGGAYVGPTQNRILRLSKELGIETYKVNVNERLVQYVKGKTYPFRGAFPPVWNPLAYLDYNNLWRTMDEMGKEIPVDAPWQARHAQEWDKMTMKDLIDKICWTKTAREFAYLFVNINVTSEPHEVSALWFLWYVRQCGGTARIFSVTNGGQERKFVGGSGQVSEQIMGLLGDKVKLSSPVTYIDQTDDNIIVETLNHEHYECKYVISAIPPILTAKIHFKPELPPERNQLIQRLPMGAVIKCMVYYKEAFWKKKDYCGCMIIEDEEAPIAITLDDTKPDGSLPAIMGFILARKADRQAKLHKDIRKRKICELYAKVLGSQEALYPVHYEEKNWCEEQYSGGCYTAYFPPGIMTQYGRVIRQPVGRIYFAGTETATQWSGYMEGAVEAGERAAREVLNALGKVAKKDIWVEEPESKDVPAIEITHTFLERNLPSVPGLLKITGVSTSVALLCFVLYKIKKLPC
Counter-ions that a name gives are not always drawn.
The label is yes for IC50 below 100 nM and no for IC50 equal to or exceeding 100 nM.

Q. Please indicate whether the reported IC50 of COCC1CN(c2ccc3nc(N(C)CCC#N)sc3c2)C(=O)O1 (stereo not drawn) [Example 28] is strictly below 100 nM.
A. yes

Q. Please indicate whether the reported IC50 of COCC1CN(c2ccc3nc(C(C)(O)CCC#N)sc3c2)C(=O)O1 (stereo not drawn) [Example 37] is strictly below 100 nM.
A. yes

Q. Please indicate whether the reported IC50 of COC[C@H]1CN(c2ccc3nc(CCCCC#N)sc3c2)C(=O)O1 [Example 23] is strictly below 100 nM.
A. yes

Q. Please indicate whether the reported IC50 of COC[C@H]1CN(c2ccc3nc(N4CCC(C#N)CC4)sc3c2)C(=O)O1 [Example 13, hydrochloride] is strictly below 100 nM.
A. no

Q. Please indicate whether the reported IC50 of COCC1CN(c2ccc3nc(COCC#N)sc3c2)C(=O)O1 (stereo not drawn) [Example 3] is strictly below 100 nM.
A. yes

Q. Please indicate whether the reported IC50 of N#CCCCCc1nc2ccc(N3C[C@H](CO)OC3=O)cc2s1 [Example 24] is strictly below 100 nM.
A. no
